B1: ZNF263 (parent)
chain: VPGTQVGQGGKLWDPSVQSCKEGL

Variants of: B1
protocol.notes: protein stability index of a GFP-peptide fusion (GPS, HEK-293T) (PSI 1-6); higher = more stable;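 also: lentivirally expressed fusions sorted by FACS into six bins by GFP to DsRed ratio, PSI derived from sequencing read proportions per bin multiplied by bin number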
conditions: c terminus: a fixed tail appended
Catalogue of variants with associated protein stability index
measured.endpoint: protein stability index

seq	observed.value
VPGTQVGEGGKLWDPSVQSCKEGL [Q8E]	3.48
VPGTQVRQGGKLWDPSVQSCKEGL [G7R]	3.68
VPTTQVGQGGKLWDPSVQSCKEGL [G3T]	4.32
VKGTQVGQGGKLWDPSVQSCKEGL [P2K]	3.89
VPGTQVGQKGKLWDPSVQSCKEGL [G9K]	4.25
VPGTQTGQGGKLWDPSVQSCKEGL [V6T]	4.7
MPGTQVGQGGKLWDPSVQSCKEGL [V1M]	4.69
VPGTQVGQMGKLWDPSVQSCKEGL [G9M]	3.42
VPRTQVGQGGKLWDPSVQSCKEGL [G3R]	3.35
VPGTQVGQGAKLWDPSVQSCKEGL [G10A]	4.33
VPGTQVGQGNKLWDPSVQSCKEGL [G10N]	4.19
VPGTQVGQGGALWDPSVQSCKEGL [K11A]	4

Reference for the values: the supplement of paper PMC10567573
